B1: CPEB3 Ribozyme (parent)
chain: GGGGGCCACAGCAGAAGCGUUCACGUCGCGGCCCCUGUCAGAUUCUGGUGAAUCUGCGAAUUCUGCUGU

variants of: B1; test: self-cleavage, relative activity (ratio to wild type); higher = more cleavage; co-transcriptional
Bucketed by reported self-cleavage, buckets being range A (below 0.2), range B (0.2 to below 0.7), range C (0.7 or more)

{"Mutant name": "G1C G47C", "Group label": "range B"}
{"Mutant name": "C24A U43A", "Group label": "range B"}
{"Mutant name": "G25U U36A", "Group label": "range A"}
{"Mutant name": "A15U U49C", "Group label": "range C"}
{"Mutant name": "C18A G31U", "Group label": "range A"}

Could you place C18A G25U in its proper category? Many thanks.
range A

Consider A23U G56A . To which self-cleavage class does it belong?
range C

Sort into band: G3C G17A
range A

Please indicate the class for A16C C33G based on its self-cleavage.
range A

// return the class label for U21A A60U
range B
